These measurements were taken from patent US9688653B2.

Tested on: E. coli K1 strain UTI89
Assay: microbe, parasite or virus in culture
Conditions: read-out: K1 phage IC50; second round of synthetic analogues, n = 3
pIC50: −log10 of the molar value.
// label = true if pIC50 is not less than 5, otherwise false

Is pIC50 at least 5? Consider CCCCOc1ccc(-c2cc(NC(=O)c3c(F)cccc3F)c(C(=O)O)s2)cc1 [compound 56643007]
true

Please do the same for CCCc1ccc(-c2cc(NC(=O)c3c(F)cc(F)cc3F)c(C(=O)O)s2)cc1 [compound 56643011] as well.
false

Please do the same for O=C(Nc1cc(-c2ccc(OCCCC(F)(F)F)cc2)sc1C(=O)O)c1cc(Br)c(Br)o1 [compound 56643009] as well.
false

Please do the same for O=C(O)c1sc(-c2ccc(OCC(F)(F)F)cc2)cc1NC(=O)c1c(F)cccc1F [compound 56643002] as well.
true

Please do the same for CCCc1ccc(-c2cc(NC(=O)c3c(F)cccc3F)c(C(=O)O)s2)cc1 [compound 56643016] as well.
true

Please do the same for O=C(O)c1sc(-c2ccc(OCCCC(F)(F)F)cc2)cc1NC(=O)c1c(F)cc(F)cc1F [compound 56643015] as well.
true
